# Tested on: Mus musculus
# EXPERIMENTAL_DETAILS: Compound was tested for mean survival time through 21 days after administration of 200 mg/kg, 24 and 18 hr prior to virus inoculation ( forest virus) in mice
# Assay type: functional
PROPERTY: Mean survival time (days)
Output spec: scalar in days, unitless text.

Here's what some known entries look like.
molecule="C[C@H]1OC(n2c(=O)sc3c(O)nc(N)nc32)[C@H](O)[C@@H]1O (stereo not given in full)" property="Mean survival time" unit_label=days quantitative_result=8.4
molecule=Nc1nc(O)c2sc(=O)n([C@H]3C[C@H](O)[C@@H](CO)O3)c2n1 property="Mean survival time" unit_label=days quantitative_result=7
molecule="Nc1nc(O)c2sc(=O)n(C3O[C@H](COS(N)(=O)=O)[C@@H](O)[C@H]3O)c2n1 (stereo not given in full)" property="Mean survival time" unit_label=days quantitative_result=8.2

Now look at this one.
Kindly state the measured Mean survival time obtained for Nc1nc(O)c2sc(=O)n(C(CO)OC(CO)CO)c2n1 (stereo not given) with Mus musculus. 7.8
